# Assay Procedure: recombinant UMI read abundance after kanamycin selection (control-corrected) (log10(CPM+1)); higher = more efficient recombination; extreme values may be limits of the assay; sequences stand for … in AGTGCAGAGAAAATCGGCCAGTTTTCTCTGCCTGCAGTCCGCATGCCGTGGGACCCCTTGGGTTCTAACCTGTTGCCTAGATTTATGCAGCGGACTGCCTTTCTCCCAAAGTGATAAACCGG…AGGTTGGTTTCACT; site = the 11-nt donor
Property Name: recombinant UMI read abundance (log10)
Output: the number by itself.

Some solved cases for reference:
{"columns": ["Biosequence", "recombinant UMI read abundance (log10)"],
 "data": [
  ["CTAAGCACATGGACCGGTTTTCCCGGTAATCCGTATTTGCT (site CTAAGCACTAG)", 1.9],
  ["GTTAACGCATGGACCGGTTTTCCCGGTAATCCGTATTTGGA (site GTTAACGCTTC)", 0.944],
  ["CGTTAGACATGGACCGGTTTTCCCGGTAATCCGTATTTGTG (site CGTTAGACTCA)", 1.14],
  ["CCGCGCACATGGACCGGTTTTCCCGGTAATCCGTATTTGTA (site CCGCGCACTTA)", 0.0144],
  ["CGATCATCATGGACCGGTTTTCCCGGTAATCCGTATTTGCT (site CGATCATCTGG)", 0]
]}

Could you tell me which recombinant UMI read abundance (log10) is on file for TCGAAGCCATGGACCGGTTTTCCCGGTAATCCGTATTTGGG (site TCGAAGCCTCC) ?
0.0129

Could you tell me which recombinant UMI read abundance (log10) is on file for CTTCTGTCATGGACCGGTTTTCCCGGTAATCCGTATTTGTA (site CTTCTCTCTTA) ?
0.00482

Could you tell me which recombinant UMI read abundance (log10) is on file for GTTAGGACATGGACCGGTTTTCCCGGTAATCCGTATTTGGC (site GTTAGTACTGC) ?
0

Could you tell me which recombinant UMI read abundance (log10) is on file for AGGGGTCCATGGACCGGTTTTCCCGGTAATCCGTATTTGCT (site AGGGGTCCTAG) ?
0.704

---

# Assay Procedure: recombinant barcode read abundance after kanamycin selection (control-corrected) (log10(CPM+1)); higher = more efficient recombination; sequences stand for … in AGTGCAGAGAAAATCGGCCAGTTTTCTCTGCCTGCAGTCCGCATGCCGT…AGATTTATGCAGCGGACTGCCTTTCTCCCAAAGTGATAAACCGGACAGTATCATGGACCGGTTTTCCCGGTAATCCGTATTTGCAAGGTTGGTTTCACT; site = the 11-nt target
Property Name: recombinant barcode read abundance (log10)
Output: the number by itself.

Some solved cases for reference:
{"columns": ["Biosequence", "Assay Value"],
 "data": [
  ["ATGCAAACTTGGGTTCTAACCTGTTGCCT (site ATGCAACCTAG)", 0.0759],
  ["GGGGCCTCTTGGGTTCTAACCTGTTGCTG (site GGAGCCTCTGA)", 0.0595],
  ["ACGCACTCTTGGGTTCTAACCTGTTGCCT (site ACGCAATCTAG)", 0.02],
  ["CTAATTACTTGGGTTCTAACCTGTTGCAC (site GTAACTACTGT)", 0.114]
]}

Moving on to another sequence below.
Could you tell me which recombinant barcode read abundance (log10) is on file for CTCTTAGCTTGGGTTCTAACCTGTTGCAA (site CTCTTAACTTA) ?
0.0112

---

# Assay Procedure: recombinant UMI read abundance after kanamycin selection (control-corrected) (log10(CPM+1)); higher = more efficient recombination; extreme values may be limits of the assay; sequences stand for … in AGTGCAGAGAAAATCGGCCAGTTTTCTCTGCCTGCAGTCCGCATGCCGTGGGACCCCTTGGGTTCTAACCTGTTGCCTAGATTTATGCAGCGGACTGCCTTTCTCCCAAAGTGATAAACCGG…AGGTTGGTTTCACT; site = the 11-nt donor
Property Name: recombinant UMI read abundance (log10)
Output: the number by itself.

{"columns": ["Biosequence", "recombinant UMI read abundance (log10)"],
 "data": [
  ["GACAAACCATGGACCGGTTTTCCCGGTAATCCGTATTTGGT (site GACAAACCTAA)", 0],
  ["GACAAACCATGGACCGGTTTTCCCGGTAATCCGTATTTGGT (site GACAAATCTAC)", 0],
  ["TGCGAGCCATGGACCGGTTTTCCCGGTAATCCGTATTTGAA (site TGCGAGCCTTT)", 0.00414],
  ["CCTAATGCATGGACCGGTTTTCCCGGTAATCCGTATTTGGC (site CCTAATCCTGC)", 0]
]}

Could you tell me which recombinant UMI read abundance (log10) is on file for GTTAGAACATGGACCGGTTTTCCCGGTAATCCGTATTTGGC (site GTTAGAACTAC) ?
0.00468

Could you tell me which recombinant UMI read abundance (log10) is on file for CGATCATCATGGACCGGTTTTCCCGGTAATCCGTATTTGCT (site CGATCACCTGG) ?
0.009

Could you tell me which recombinant UMI read abundance (log10) is on file for ACGGATTCATGGACCGGTTTTCCCGGTAATCCGTATTTGCG (site ACGGATTCTCG) ?
2.66

Could you tell me which recombinant UMI read abundance (log10) is on file for TAATGAGCATGGACCGGTTTTCCCGGTAATCCGTATTTGCG (site TAATGAGCTCC) ?
0.00423

Could you tell me which recombinant UMI read abundance (log10) is on file for CAGTCGCCATGGACCGGTTTTCCCGGTAATCCGTATTTGGG (site CAGTCGTCTCC) ?
0

Could you tell me which recombinant UMI read abundance (log10) is on file for TATTGAGCATGGACCGGTTTTCCCGGTAATCCGTATTTGGG (site TAGTGAGCTCC) ?
0.0187

Could you tell me which recombinant UMI read abundance (log10) is on file for CTAGGGGCATGGACCGGTTTTCCCGGTAATCCGTATTTGTG (site CTAGGGGCTCA) ?
1.23

Could you tell me which recombinant UMI read abundance (log10) is on file for GACATACCATGGACCGGTTTTCCCGGTAATCCGTATTTGGT (site GACAGACCTAC) ?
0

Could you tell me which recombinant UMI read abundance (log10) is on file for GTAGGTACATGGACCGGTTTTCCCGGTAATCCGTATTTGCC (site GTAGGTACTGA) ?
0.73

---

recombinant barcode read abundance (log10): recorded values
# Assay Procedure: recombinant barcode read abundance after kanamycin selection (control-corrected) (log10(CPM+1)); higher = more efficient recombination; sequences stand for … in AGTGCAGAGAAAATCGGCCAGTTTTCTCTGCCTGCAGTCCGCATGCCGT…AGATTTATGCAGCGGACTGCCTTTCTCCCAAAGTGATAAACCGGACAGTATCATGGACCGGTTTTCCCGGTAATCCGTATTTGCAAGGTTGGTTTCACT; site = the 11-nt target
Output: the number by itself.

Some solved cases for reference:
{"columns": ["Biosequence", "Assay Value"],
 "data": [
  ["GCACACCCTTGGGTTCTAACCTGTTGCCT (site CCACATCCTAG)", 0.0345],
  ["GCATCCACTTGGGTTCTAACCTGTTGCCT (site GCATCCACTAG)", 0.938],
  ["TAGGGCGCTTGGGTTCTAACCTGTTGCCT (site TAAGGAGCTAG)", 0.204],
  ["CTATTGACTTGGGTTCTAACCTGTTGCCT (site CTATGGACTAG)", 0.11]
]}

Moving on to another sequence below.
Could you tell me which recombinant barcode read abundance (log10) is on file for TCTAAACCTTGGGTTCTAACCTGTTGCAT (site TCTAAGCCTAT) ?
0.0795

---

# Assay Procedure: recombinant barcode read abundance after kanamycin selection (control-corrected) (log10(CPM+1)); higher = more efficient recombination; sequences stand for … in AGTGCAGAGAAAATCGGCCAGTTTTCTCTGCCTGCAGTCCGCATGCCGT…ATTTATGCAGCGGACTGCCTTTCTCCCAAAGTGATAAACCGGACAGTATCATGGACCGGTTTTCCCGGTAATCCGTATTTGCAAGGTTGGTTTCACT; site = the 11-nt target
Property Name: recombinant barcode read abundance (log10)
Output: the number by itself.

{"columns": ["Biosequence", "Assay Value"],
 "data": [
  ["GGGCGGATTTGGGTTCTAACCTGTTGCGGAA [GGGCGGACTCC_LTGcore_TT_RTGcore_TT] (site GGGCGGACTCC) (LTG core: TT, RTG core: TT)", 0.223]
]}

Could you tell me which recombinant barcode read abundance (log10) is on file for TCTACCCTCTGGGTTCTAACCTGTTGCTGGA [TCTACCCCTCA_LTGcore_TC_RTGcore_TC] (site TCTACCCCTCA) (LTG core: TC, RTG core: TC) ?
0.032

Could you tell me which recombinant barcode read abundance (log10) is on file for AGGCGGTAGTGGGTTCTAACCTGTTGCTTAG [AGGCGGTCTAA_LTGcore_AG_RTGcore_CT] (site AGGCGGTCTAA) (LTG core: AG, RTG core: CT) ?
0.187

Could you tell me which recombinant barcode read abundance (log10) is on file for GGGCGGACTTGGGTTCTAACCTGTTGCGGTA [GGGCGGACTCC_LTGcore_CT_RTGcore_TA] (site GGGCGGACTCC) (LTG core: CT, RTG core: TA) ?
0.0865

Could you tell me which recombinant barcode read abundance (log10) is on file for AGGCGGTGGTGGGTTCTAACCTGTTGCTTCC [AGGCGGTCTAA_LTGcore_GG_RTGcore_GG] (site AGGCGGTCTAA) (LTG core: GG, RTG core: GG) ?
0.0144

Origin of the recorded values: the supplement of paper PMC11208160
